Type: physicochemical
CONDITION SUMMARY: 40° C. and 75% RH, day 7
Where a name gives a salt, the structure may show the parent alone.
Please go through the items and note down their HPLC Purity.
Numbers only, in %.

Take a look at these entries with their results.
- COMPOUND: "COc1cccc2[nH]c3c4c(c5c(c3c12)C(=O)N(CN1CCN(C)CC1)C5=O)CCC4.O=C1CC[C@@H](C(=O)O)N1"
  OBSERVED RESULT: 98.7
- COMPOUND: "COc1cccc2[nH]c3c4c(c5c(c3c12)C(=O)N(CN1CCN(C)CC1)C5=O)CCC4 [Glycolate Salt Hydrate, Form A1]"
  OBSERVED RESULT: 99.6
- COMPOUND: "COc1cccc2[nH]c3c4c(c5c(c3c12)C(=O)N(CN1CCN(C)CC1)C5=O)CCC4 [Acetate Salt, Form A1.5]"
  OBSERVED RESULT: 99.6

Now turn to the next compound.
So, COc1cccc2[nH]c3c4c(c5c(c3c12)C(=O)N(CN1CCN(C)CC1)C5=O)CCC4 [L-Malate Salt, Form A1] ? Its HPLC Purity was 99.3
